# assay_comment: Pharmacokinetics in mice, compound concentration by LC-MS/MS
# Format: in vivo, CD-1 male mice
# details: male, CD-1, mouse, plasma, 10 mg/kg, PO, 10 mpk, read-out: AUC0-24 h
Measured AUC(0-t), listed per entry for reference.

The examples below pair each entry with its known result.
- COc1ccc2c3c(cnc2n1)CCC(=O)N3Cc1c(F)cc(S(N)(=O)=O)cc1F [Compound 054]: 20100 ng·h/mL
- COc1ccc2c(ncc3ccc(=O)n(Cc4c(F)cc(S(N)(=O)=O)cc4F)c32)n1 [Compound 008]: 7340 ng·h/mL

Please look at the following compound next.
// COc1cc2ncc3c(c2cc1F)N(Cc1c(F)cc(S(N)(=O)=O)cc1F)C(=O)OC3 [Compound 048] : AUC(0-t) value = 34800 ng·h/mL

----------
# assay_comment: Pharmacokinetics in mice, compound concentration by LC-MS/MS
# Assay type: in vivo, CD-1 male mice
# details: male, CD-1, mouse, plasma, 10 mg/kg, PO, 10 mpk
reported_metric: half-life

// COc1cc2ncc3c(c2cc1F)N(Cc1c(F)cc(S(N)(=O)=O)cc1F)C(=O)OC3 [Compound 048] : half-life value = 2.79 h

// COc1ccc2c(ncc3ccc(=O)n(Cc4c(F)cc(S(N)(=O)=O)cc4F)c32)n1 [Compound 008] : half-life value = 3.87 h

// COc1ccc2c3c(cnc2n1)CCC(=O)N3Cc1c(F)cc(S(N)(=O)=O)cc1F [Compound 054] : half-life value = 3.39 h

----------
# assay_comment: Pharmacokinetics in mice, compound concentration by LC-MS/MS
# Assay type: in vivo, CD-1 male mice
# details: male, CD-1, mouse, plasma, 2 mg/kg, IV, 2 mpk
Measured half-life, listed per entry for reference.
// units = h; emit number, no label

The examples below pair each entry with its known result.
* COc1cc2ncc3c(c2cc1F)N(Cc1c(F)cc(S(N)(=O)=O)cc1F)C(=O)OC3 | 3.07
* COc1ccc2c3c(cnc2n1)CCC(=O)N3Cc1c(F)cc(S(N)(=O)=O)cc1F | 3.51

Please look at the following compound next.
// COc1ccc2c(ncc3ccc(=O)n(Cc4c(F)cc(S(N)(=O)=O)cc4F)c32)n1 : half-life value = 4.56

----------
# test_system: hENPP1 enzyme (Homo sapiens (Human))
# Sequence (P22413 whole entry): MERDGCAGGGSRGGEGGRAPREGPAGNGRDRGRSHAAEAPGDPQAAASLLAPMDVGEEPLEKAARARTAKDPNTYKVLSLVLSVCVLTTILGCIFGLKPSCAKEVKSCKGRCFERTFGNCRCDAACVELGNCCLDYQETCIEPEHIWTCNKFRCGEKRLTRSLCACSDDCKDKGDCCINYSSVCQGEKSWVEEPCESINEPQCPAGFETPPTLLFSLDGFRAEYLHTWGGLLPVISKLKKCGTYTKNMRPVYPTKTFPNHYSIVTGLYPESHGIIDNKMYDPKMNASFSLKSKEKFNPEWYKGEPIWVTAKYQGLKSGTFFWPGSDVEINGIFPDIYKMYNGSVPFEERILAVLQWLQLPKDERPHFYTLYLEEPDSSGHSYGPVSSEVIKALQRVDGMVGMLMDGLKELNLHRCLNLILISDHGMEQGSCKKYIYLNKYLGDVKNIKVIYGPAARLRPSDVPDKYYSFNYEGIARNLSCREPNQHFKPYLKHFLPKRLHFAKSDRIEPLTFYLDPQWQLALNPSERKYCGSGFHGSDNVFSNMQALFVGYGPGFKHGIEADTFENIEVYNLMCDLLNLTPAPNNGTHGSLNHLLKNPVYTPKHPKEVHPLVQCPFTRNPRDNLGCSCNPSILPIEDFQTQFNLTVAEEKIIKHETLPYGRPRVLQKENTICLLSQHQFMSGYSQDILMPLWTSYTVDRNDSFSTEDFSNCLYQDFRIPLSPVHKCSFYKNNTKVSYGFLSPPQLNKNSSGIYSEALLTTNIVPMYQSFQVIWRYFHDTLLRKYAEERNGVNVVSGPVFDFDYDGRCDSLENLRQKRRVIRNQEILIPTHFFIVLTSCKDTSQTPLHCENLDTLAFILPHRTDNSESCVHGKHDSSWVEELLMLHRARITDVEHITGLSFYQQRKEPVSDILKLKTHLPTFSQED
# assay_comment: ENPP1 enzymatic inhibition in biochemical assay (TMP-pNP hydrolysis, OD405)
# details: ENPP1 enzymatic inhibition activity, TMP-pNP substrate, pH 9.5
pIC50: −log10 of the molar value.
Measured pIC50, listed per entry for reference.

Field pIC50 (system: hENPP1 enzyme (Homo sapiens (Human))) for entry COc1ccc2c3c(cnc2c1)N(C(=O)CO)CC(=O)N3Cc1c(F)cc(S(N)(=O)=O)cc1F = 8.70 to 9.70

Field pIC50 (system: hENPP1 enzyme (Homo sapiens (Human))) for entry COc1ccc2c3c(cnc2n1)COC(=O)N3Cc1ccc(S(N)(=O)=O)cc1 = 8.70 to 9.70

Field pIC50 (system: hENPP1 enzyme (Homo sapiens (Human))) for entry COc1ccc2c(ncc3ccc(=O)n(Cc4c(F)cc(S(N)(=O)=O)cc4F)c32)n1 = 9.70 to 10.00

----------
# assay_comment: Pharmacokinetics in mice, compound concentration by LC-MS/MS
# Format: in vivo, CD-1 male mice
# details: male, CD-1, mouse, plasma, 10 mg/kg, PO, 10 mpk, read-out: Tmax
Measured Tmax, listed per entry for reference.
// units = min; emit number, no label

The examples below pair each entry with its known result.
- COc1ccc2c3c(cnc2n1)CCC(=O)N3Cc1c(F)cc(S(N)(=O)=O)cc1F: 30
- COc1ccc2c(ncc3ccc(=O)n(Cc4c(F)cc(S(N)(=O)=O)cc4F)c32)n1: 190

Please look at the following molecule next.
// COc1cc2ncc3c(c2cc1F)N(Cc1c(F)cc(S(N)(=O)=O)cc1F)C(=O)OC3 : Tmax value = 35

----------
This document collects IC50 values reported for hENPP1 enzyme (Homo sapiens (Human), UniProt P22413).

// COc1ccc2c3c(cnc2n1)NCC(=O)N3Cc1c(F)cc(S(N)(=O)=O)cc1F : IC50 value = 0.2 to 2 nM

----------
Measured bioavailability, listed per entry for reference.
# assay_comment: Pharmacokinetics in mice, compound concentration by LC-MS/MS
# Type: in vivo, CD-1 male mice
# details: male, CD-1, mouse, plasma, 10 mg/kg, PO, 10 mpk vs IV, 2 mpk
// units = %; emit number, no label

// COc1ccc2c3c(cnc2n1)COC(=O)N3Cc1c(F)cc(S(N)(=O)=O)cc1F : bioavailability value = 92.6

// COc1cc2ncc3c(c2cc1F)N(Cc1c(F)cc(S(N)(=O)=O)cc1F)C(=O)OC3 : bioavailability value = 38.1

// COc1ccc2c3c(cnc2n1)CCC(=O)N3Cc1c(F)cc(S(N)(=O)=O)cc1F : bioavailability value = 49.7

// COc1ccc2c(ncc3ccc(=O)n(Cc4c(F)cc(S(N)(=O)=O)cc4F)c32)n1 : bioavailability value = 20

----------
Measured AUC(0-t), listed per entry for reference.
# assay_comment: Pharmacokinetics in mice, compound concentration by LC-MS/MS
# Format: in vivo, CD-1 male mice
# details: male, CD-1, mouse, plasma, 2 mg/kg, IV, 2 mpk, read-out: AUC0-24 h
// units = ng·h/mL; emit number, no label

// COc1cc2ncc3c(c2cc1F)N(Cc1c(F)cc(S(N)(=O)=O)cc1F)C(=O)OC3 [Compound 048] : AUC(0-t) value = 18300

// COc1ccc2c3c(cnc2n1)CCC(=O)N3Cc1c(F)cc(S(N)(=O)=O)cc1F [Compound 054] : AUC(0-t) value = 8090

// COc1ccc2c(ncc3ccc(=O)n(Cc4c(F)cc(S(N)(=O)=O)cc4F)c32)n1 [Compound 008] : AUC(0-t) value = 7450

----------
# test_system: ENPP1 in cultured MDA-MB-231 cells (Homo sapiens (Human), UniProt P22413)
# assay_comment: ENPP1 enzymatic inhibition in cellular assay (MDA-MB-231 cells, TMP-pNP)
# details: ENPP1 enzymatic inhibition activity at the cellular level
Measured EC50, listed per entry for reference.

// COc1cc2ncc3c(c2cc1F)N(Cc1c(F)cc(S(N)(=O)=O)cc1F)C(=O)NC3 [Compound 007] : EC50 value = < 500 pM

// COc1ccc2c(ncc3ccc(=O)n(Cc4c(F)cc(S(N)(=O)=O)cc4F)c32)n1 [Compound 008] : EC50 value = < 500 pM

----------
# test_system: UniProtKB P22413
# assay_comment: ENPP1 enzymatic inhibition in biochemical assay (TMP-pNP hydrolysis, OD405)
# details: ENPP1 enzymatic inhibition activity, TMP-pNP substrate, pH 9.5
reported_metric: IC50

The examples below pair each entry with its known result.
* COc1ccc2c3c(cnc2n1)COC(=O)N3Cc1ccc(S(N)(=O)=O)cc1F | 0.1 to 0.2 nM
* COc1ccc2c3c(cnc2n1)CN(C1CC1)C(=O)N3Cc1c(F)cc(S(N)(=O)=O)cc1F | 0.1 to 0.2 nM
* COc1ccc2c(ncc3c2n(Cc2c(F)cc(S(N)(=O)=O)cc2F)c(=O)n3CC(F)(F)F)n1 [ZX-131, reference compound] | 0.1 to 0.2 nM
* COc1ccc2c3c(cnc2n1)NCCN3Cc1c(F)cc(S(N)(=O)=O)cc1F | 0.2 to 2 nM
* COc1ccc2c3c(cnc2n1)COC(=O)N3Cc1c(F)cc(S(N)(=O)=O)cc1F | 0.1 to 0.2 nM

// COc1ccc2c(ncc3ncc(=O)n(Cc4c(F)cc(S(N)(=O)=O)cc4F)c32)n1 : IC50 value = 0.2 to 2 nM

// COc1ccc2c3c(cnc2c1)COC(=O)N3Cc1c(F)cc(S(N)(=O)=O)cc1F : IC50 value = 0.1 to 0.2 nM

----------
# test_system: ENPP1 in cultured MDA-MB-231 cells (Homo sapiens (Human))
# assay_comment: ENPP1 enzymatic inhibition in cellular assay (MDA-MB-231 cells, TMP-pNP)
# details: ENPP1 enzymatic inhibition activity at the cellular level
pEC50: −log10 of the molar value.
reported_metric: pEC50

The examples below pair each entry with its known result.
- COc1cc2ncc3c(c2cc1F)N(Cc1c(F)cc(S(N)(=O)=O)cc1F)C(=O)OC3 [Compound 048]: > 9.30
- COc1ccc2c3c(cnc2n1)COC(=O)N3Cc1c(F)cc(S(N)(=O)=O)cc1F [Compound 006]: > 9.30
- COc1ccc2c(ncc3c2n(Cc2c(F)cc(S(N)(=O)=O)cc2F)c(=O)n3CC(F)(F)F)n1 [ZX-131, reference compound]: 8.70 to 9.30

// COc1ccc2c(ncc3[nH]c(=O)c(=O)n(Cc4c(F)cc(S(N)(=O)=O)cc4F)c32)n1 [Compound 062] : pEC50 value = > 9.30
